- measurement.target: Glucose transporter (Leishmania mexicana)
- measurement.notes: ST_JUDE_LEISH: Cytotoxicity at 2uM final concentration against transgenic Leishmania Mexicana promastigotes LmGT2 that are glucose transport deficient and complemented with the L. Mexicana glucose transporter 2. Activity is measured by DNA content using SYBR green in vitro
- Type: functional
Form field: inhibition (one value per entry).
readout.label: inhibition (%)

- molecule: "CN(C)CCN(C)Cc1ccc(-c2ccc3c(Nc4ccc(Cl)cc4F)ccnc3c2)o1"
  unit.descriptor: "%"
  reported.result: 2.79
- molecule: "CN(C)Cc1cccc(-c2ccc(NC(=O)c3ccc4c(=O)n(Cc5ccoc5)cnc4c3)cc2)c1"
  unit.descriptor: "%"
  reported.result: 24.1
- molecule: "Cc1cc(O)c(-c2ccc(OCc3ccc(Cl)cc3)cc2)c(C)n1"
  unit.descriptor: "%"
  reported.result: -0.29
- molecule: "Cc1cc(C(=O)Nc2ccc3c(c2)CCN3C2CCN(Cc3ccc(F)cc3Cl)C2)no1 (centres undefined)"
  unit.descriptor: "%"
  reported.result: 3.86
- molecule: "Cc1cccc2nc(-c3ccc(-c4cccc(NC(=O)Nc5ccc(Cl)cc5)c4)s3)[nH]c12"
  unit.descriptor: "%"
  reported.result: 3.01
- molecule: "CN(C)CCNC(=O)NC1CN(c2ncnc3cc(-c4ccccc4)sc23)C1"
  unit.descriptor: "%"
  reported.result: 4.03
- molecule: "Cc1ccc2nc3c(cc(C(=O)NCc4ccccc4)c(=N)n3CCCn3ccnc3)c(=O)n2c1"
  unit.descriptor: "%"
  reported.result: 12.2
- molecule: "O=C(Nc1cccc(OC2CCN(Cc3ccsc3)CC2)c1)c1ccc(C(F)(F)F)cc1"
  unit.descriptor: "%"
  reported.result: -1.05
- molecule: "Cc1ccc2[nH]c3c(NCCN(C)C)ncnc3c2c1"
  unit.descriptor: "%"
  reported.result: -0.07
- molecule: "C=CCc1cc(Br)ccc1OCCCOc1c(N)nc(N)nc1N"
  unit.descriptor: "%"
  reported.result: 3.62
- molecule: "CON=Cc1ccn(-c2ccc(O)c3c2C[C@H]2C[C@H]4[C@H](N(C)C)C(O)=C(C(N)=O)C(=O)[C@@]4(O)C(O)=C2C3=O)c1"
  unit.descriptor: "%"
  reported.result: 4.92
- molecule: "CC=CC(=O)N1CCN(c2nccc(-c3ccc(C(C)(C)C)cc3)n2)CC1"
  unit.descriptor: "%"
  reported.result: 7.85
- molecule: "O=C(c1ccc(Cl)cc1)N1CCCC(C(=O)N(Cc2nnc(-c3ccccc3Cl)o2)C2CC2)C1 (centres undefined)"
  unit.descriptor: "%"
  reported.result: -0.04
- molecule: "COc1cccc(NC(=O)c2nc(N3CCN(c4ccncc4)CC3)ccc2Cl)c1"
  unit.descriptor: "%"
  reported.result: 0.29
- molecule: "CCc1ccc(S(=O)(=O)Nc2ccc(CCN3CCC(N4CCCCC4)CC3)cc2)cc1"
  unit.descriptor: "%"
  reported.result: 11.4
- molecule: "COc1ccc2[nH]cc(C3CCN(CCC4CCN(C(=O)/C=C/c5ccc(Cl)c(Cl)c5)CC4)CC3)c2c1"
  unit.descriptor: "%"
  reported.result: 1.93
- molecule: "O=C(NC1CCCc2ccccc21)C1CCCN(C(=O)c2ccc(O)c(-c3ccc(Cl)c(Cl)c3)c2)C1 (centres undefined)"
  unit.descriptor: "%"
  reported.result: 2.38
- molecule: "O=C(Nc1cccc(F)c1)NC1CCN(c2ccnc3cc(Cl)ccc23)CC1"
  unit.descriptor: "%"
  reported.result: 1.75
- molecule: "COc1cc(NC(=O)N2CCc3ccc(OCCN4CCCCC4)cc32)cc(C(F)(F)F)c1"
  unit.descriptor: "%"
  reported.result: 3.59
- molecule: "CS(=O)(=O)c1cccc(-c2cnc(N)c3cc(-c4cccc(F)c4)ccc23)c1"
  unit.descriptor: "%"
  reported.result: 0.94
- molecule: "Cc1cc(C)cc(CC(=O)N2CCC(n3c(C)nc4ccc(C)cc43)CC2)c1"
  unit.descriptor: "%"
  reported.result: 1.51
- molecule: "CC(CCc1ccccc1)NCC(O)c1cccc(C(F)(F)F)c1 (centres undefined)"
  unit.descriptor: "%"
  reported.result: 3.76
- molecule: "Cc1ccc(NS(=O)(=O)c2ccc(C(C)N3CCC(N4CCCCC4)CC3)cc2)cc1C (centres undefined)"
  unit.descriptor: "%"
  reported.result: 0.73
- molecule: "O=C(Nc1ccc(-c2ccccc2)c(OCCN2CCNCC2)c1)c1ccc(-c2ccc(Cl)cc2)cc1"
  unit.descriptor: "%"
  reported.result: 3.11
- molecule: "CCCCCN1CCCC(NS(=O)(=O)c2ccc(C(=O)Nc3cccc(C(F)(F)F)c3)cc2)C1 (centres undefined)"
  unit.descriptor: "%"
  reported.result: 0.39
- molecule: "NC1=NC2(CCCCC2)N(Cc2ccc(Cl)c(Cl)c2)C(N)=N1"
  unit.descriptor: "%"
  reported.result: -0.42
- molecule: "CCOC(=O)C(C(C)=O)C(c1ccccc1)C(C(C)=O)C(=O)OCC (centres undefined)"
  unit.descriptor: "%"
  reported.result: 0.94
- molecule: "Cc1cc(O)c2c(c1)OC(C)(C)C=C2C1=CCN(Cc2ccccc2)CC1"
  unit.descriptor: "%"
  reported.result: 5.88
- molecule: "O=C(/C=C/c1ccc(Cl)c(Cl)c1)NCCCCCN1CCC(NC(=O)Nc2ccc(Cl)cc2F)CC1"
  unit.descriptor: "%"
  reported.result: 2.48
- molecule: "CCc1c(CCNCCCCCCNCCc2ccc(Br)cc2)ccc(OC)c1OC"
  unit.descriptor: "%"
  reported.result: 103
- molecule: "CC1(C)N=C(N)N=C(N)N1OCCCCON1C(N)=NC(N)=NC1(C)C"
  unit.descriptor: "%"
  reported.result: 3.76
- molecule: "CCCCCCOc1ccccc1C(=O)NCCOc1ccc(Cl)cc1"
  unit.descriptor: "%"
  reported.result: -1.97
- molecule: "COc1ccc(Nc2nccc(N3CCC(NC(=O)Nc4cccc(C(C)=O)c4)C3)n2)cc1 (centres undefined)"
  unit.descriptor: "%"
  reported.result: 3.49
- molecule: "COc1cccc(N(CCCN2C(=O)c3cccc4cccc(c34)C2=O)C(=O)c2ccccc2C)c1"
  unit.descriptor: "%"
  reported.result: 0.69
- molecule: "O=S(=O)(c1ccc(OCc2ccc(Cl)cc2)cc1)c1cc2c(cc1O)CCN(C1CCC1)CC2"
  unit.descriptor: "%"
  reported.result: 1.15
- molecule: "OCC1CCN(Cc2ccc(-c3ccc(-c4nc5ccccc5[nH]4)cc3)cc2)CC1"
  unit.descriptor: "%"
  reported.result: 5.45
- molecule: "O=C(/C=C/c1ccc(Cl)c(Cl)c1)NCC(CCCN1CCC(c2c[nH]c3ccccc23)CC1)c1ccccc1 (centres undefined)"
  unit.descriptor: "%"
  reported.result: 2.05
- molecule: "COc1c(C2CCN(CCCCNC(=O)c3ccc(C)c(-c4ccc(C(F)(F)F)cc4)c3)CC2)ccc2c1CCCC2"
  unit.descriptor: "%"
  reported.result: -0.09
- molecule: "Cc1noc(-c2ccc(N3CCC(C(=O)N4CCN(C(C)C)CC4)CC3)cc2)n1"
  unit.descriptor: "%"
  reported.result: 2
